// data source = patent US20250122306A1

- Test Target: T1, cynomolgus tissue factor on HEK293T-cynoTF cells (cynomolgus monkey, UniProt P13726 33-294 (human entry))
- T1 construct: stably transfected HEK293T cells
- T1 chain: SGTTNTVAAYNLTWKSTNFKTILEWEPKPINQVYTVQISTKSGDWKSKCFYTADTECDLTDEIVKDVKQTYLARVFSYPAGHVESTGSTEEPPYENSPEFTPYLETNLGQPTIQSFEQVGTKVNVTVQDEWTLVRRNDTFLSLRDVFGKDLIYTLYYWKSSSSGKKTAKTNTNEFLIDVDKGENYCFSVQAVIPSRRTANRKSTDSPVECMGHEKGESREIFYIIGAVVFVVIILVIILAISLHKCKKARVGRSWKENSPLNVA
- Protocol Details: flow cytometry on HEK293T-cynoTF cells, one-site fit of MFI
- From the text: HEK293T, BxPC3 cells (TF positive) and NCI-H1703 (TF negative) cells were obtained from ATCC (American Type Culture Collection) and maintained in DMEM: F12 (1:1), high glucose (Corning) supplemented with 10% heat-inactivated fetal bovine serum (ThermoScientific), 1× Penicillin/Streptomycin (Corning) and 2 mmol glutamax (Thermo Fisher Scientific). […]
Field: Bmax (MFI). Provide a value for each of the binders that follow.
Numbers only, in MFI.

Field: example entries. Status: answers known.
| Binder | Bmax (MFI) |
| --- | --- |
| mAb 48: aTF_2842-B01_HC1_Y180/F404TAG; aTF_2842-B01_LC3 (antibody, IgG1, V domains shown, non-natural amino acid (pAMF) at TAG sites Y180 and F404 (EU), * in the sequence, unconjugated full-length IgG1/kappa; also called 2842-B01 HC1/LC3) VH: QVQVVESGGGLVKPGGSLRLSCAASGFSISSYDMSWIRQAPGKGLEWIGIIGSNGRTYYADSVKGRFTISRNTNENTVYLQMNSLRAEDTAVYYCARGLYDGTGNIWGQGTLVTVSS VL: DIQMTQSPSSLSASVGDRVTITCQASQSVYGNNWLSWYQQKPGKAPKLLIYGASKLASGVPSRFSGSGSGTDFTLTISSLQPEDFATYYCQGTYYSGDWYFAFGGGTKVEIKR | 486000 |
| mAb 37: aTF_2842-B01_Hc3_Y180/F404TAG pAzMeF; aTF_2842-B01_Lc2 (antibody, IgG1, V domains shown, pAzMeF at Y180 and F404 (EU), * in the sequence, unconjugated full-length IgG1/kappa, cell-free expressed; also called 2842-B01 HC3/LC2; 2842-B01-HC3/LC2 Y180/F404) VH: EVQLVESGGGLVQPGGSLRLSCAASGFSISSYDMSWVRQAPGKGLEWIGIIGSNGRTYYPDSVKGRFTISRDNSKNTVTLQMNSLRAEDTAVYYCARGLYDGTGNIWGQGTLVTVSS VL: ELVMTQSPPTLSLSPGERVTLSCRASQSVYGNNWLSWYQQKPGQAPRLLIYGASKLATSIPARFSGSGSGTQFTLTISSLQPEDFAVYYCQGTYYSGDWYFAFGQGTKVEIKR | 493000 |
| mAb 49: aTF_2842-G04_HC2_Y180/F404TAG; aTF_2842-G04_LC2 (antibody, IgG1, V domains shown, non-natural amino acid (pAMF) at TAG sites Y180 and F404 (EU), * in the sequence, unconjugated full-length IgG1/kappa; also called 2842-G04 HC2/LC2) VH: QVQVQESGPGLVKPPGTLSLTCAVSGFSLSYYGVSWVRQPPGKGLEWIGTIDSSGRTYYNPSLKSRVTISNDNAPNTVSLKLSSVTAADTAVYYCARDFYGWNSGALDIWGQGTLVTVSS VL: DLQLTQSPSTLSASVGDRVTITCRASQSVYSNKYLSWYQQKPGKAPKLLIYKASTLASGVPSRFSGSGSGTEFTLTISSLQPDDFATYYCAAAYSDDSDTAFGQGTKVEIKR | 465000 |

For the next question, use this binder.
Give the measured Bmax (MFI) of mAb 47: aTF_2842-B01_HC3_Y180/F404TAG; aTF_2842-B01_LC1 (antibody, IgG1, V domains shown, non-natural amino acid (pAMF) at TAG sites Y180 and F404 (EU), * in the sequence, unconjugated full-length IgG1/kappa; also called 2842-B01 HC3/LC1) VH: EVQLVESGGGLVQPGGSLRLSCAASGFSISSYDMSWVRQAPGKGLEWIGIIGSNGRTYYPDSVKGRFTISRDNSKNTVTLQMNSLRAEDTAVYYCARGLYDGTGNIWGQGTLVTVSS VL: DLQMTQSPSSLSASVGDRVTITCRASQSVYGNNWLSWYQQKPGKAPKLLIYGASKLASGVPSRFSGSGSGTQFTLTISSLQPEDFATYYCQGTYYSGDWYFAFGQGTKVEIKR .
501000
